Target: DCAF15 (Homo sapiens, UniProt Q66K64, DEL276-383)
Assay: DCAF15 Displacement Assay (displacement of probe PT7795, FRET)
Settings: competition with 300 nM PT7795 on DDA1-DDB1ΔB-DCAF15Δpro triplex, 18 hours incubation, FRET 665/615
Description: Proteins used for the assays were as follows: Human DDA1 (UniProt:Q9BW61), DDB1 (UniPro:Q16531), and DCAF15 (UniProt:Q66K64) coding sequences were cloned into pFastBac1 vectors and were co-expressed in Sf9 cells using Bac-to-Bac baculovirus expression system (Thermo Fisher Scientific). […] Binding of PT7795 to DDA1-DDB1ΔB-DCAF15Apro was measured by the FRET signal between europium-labeled anti-His antibody (AD0205, Perkin Elmer) that is associated with His-tagged DCAF15 and ALX647 moiety in PT7795. […]
Can you tell me pIC50 for the items I'm about to list?
Answers are plain numbers, as −log10 of the molar value.

Illustrative cases are given below, each with its answer.
Compound	Target or system	pIC50
COCCCN1Cc2cc(Cl)c3c(Cl)c(CCCC(=O)O)[nH]c3c2NS1(=O)=O	DCAF15 (Homo sapiens, UniProt Q66K64, DEL276-383)	6.19
NCCCCC(=O)N1CCC(CN2Cc3cc(Cl)c4c(Cl)c[nH]c4c3NS2(=O)=O)CC1	DCAF15 (Homo sapiens, UniProt Q66K64, DEL276-383)	6.61
COCCCCC(=O)N1CCCC(CN2Cc3cc(Cl)c4c(Cl)c[nH]c4c3NS2(=O)=O)C1 (centres unmarked)	DCAF15 (Homo sapiens, UniProt Q66K64, DEL276-383)	6.32
COCCOCC(=O)N1CCC(CN2Cc3cc(Cl)c4c(Cl)c[nH]c4c3NS2(=O)=O)CC1	DCAF15 (Homo sapiens, UniProt Q66K64, DEL276-383)	6.70

We now examine a further compound.
(Q) For the record `COCCOCCCN1Cc2cc(Cl)c3c(Cl)c[nH]c3c2NS1(=O)=O` , what value of pIC50 is listed for DCAF15 (Homo sapiens, UniProt Q66K64, DEL276-383)?
(A) 5.85

These entries and their values trace back to patent US20240400583A1.
